- System: TK-10 renal
- Assay name: NCI tumour cell line growth inhibition, 48 h
Attribute: TGI
Measured metric: TGI

| Compound | Data value |
| --- | --- |
| COc1ccccc1CN=C1NC(=O)/C(=C/c2ccc3ncccc3c2)S1 | > 25 µM |
| COc1c(C(=O)/C(=N/Nc2cccc(Cl)c2)C(C)=O)c(O)c(OC)c2occc12 | > 100 µM |
| COc1ccc(OC)c2sc(N3C(=O)/C(=C/c4ccc(SC)cc4)N=C3c3ccccc3)nc12 | > 100 µM |
| CN(C)c1ccc(/C=N/NC(=O)CSc2nc3sc4c(c3c(=O)n2-c2ccccc2)CCCCC4)cc1 | > 100 µM |
| CCCCCCCCCCCCCCC(C(=O)[O-])[n+]1ccccc1 (centres undefined) | 28.8 µM |
| NS(=O)(=O)c1ccc(C(=O)O)cc1 | > 100 µM |
| O=S(Nc1ccccc1)c1ccccc1Oc1ccccc1 (centres undefined) | > 100 µM |
| C/C(=N\NC(=O)c1cccc(S(=O)(=O)N2CCN(C)CC2)c1)c1cc(Cl)ccc1O | > 88.6 µM |
| CC1(C)CCCC2(C)C3=C(CCC12)C(=O)OC3 (centres undefined) | > 100 µM |
| CC[C@@]1(O)C(=O)OCc2c1cc1n(c2=O)Cc2cc3c([N+](=O)[O-])c(O)ccc3nc2-1 | > 85.6 µM |
| COC(=O)c1c(O)ccc2c1c1cc3ccccc3c(O)c1n2Cc1ccccc1Cl | > 100 µM |
| COc1cc2c(NCCN(C)C)nc3c4cc5c(cc4ccc3c2cc1OC)OCO5 | 5.88 µM |
| N#CC1=C(c2ccccc2)NN(Cc2ccccc2)C(c2ccc(Cl)cc2)CC1=O (centres undefined) | > 100 µM |
| CC1(C)CC(=O)c2c([nH]c(=S)c(C#N)c2-c2ccc(Br)cc2)C1 | > 100 µM |
| C=CC1CC12C(=O)C1OC2(C)C2C(=O)c3c(O)cccc3C(=O)C12 (centres undefined) | > 100 µM |
| O=C(c1ccc(-c2ccccc2)cc1)N(Cc1cccnc1)C(=S)N(Cc1cccnc1)C(=O)c1ccc(-c2ccccc2)cc1 | > 100 µM |
| CCCCCCCCCCCCCCCCCCNc1ccn(C2OC(COP(=O)(O)OCC(COP(=O)(O)OCC3OC(n4cc(C)c(=O)[nH]c4=O)CC3N=[N+]=[N-])OCCCCCCCCCCCCCCCCCC)C(O)C2O)c(=O)n1 (centres undefined) | > 100 µM |
| O=C(NCCN1CCOCC1)Nc1nc2ccc(Sc3nnc4ccc(-c5ccc(F)cc5)nn34)cc2s1 | > 100 µM |
| COc1cccc(-c2cc(C(=O)Nc3ccc(Cl)cc3)nc(N)n2)c1 | > 100 µM |
